// provenance: paper PMC10397247

Molecular target: T1, APC542-AA
T1 chain: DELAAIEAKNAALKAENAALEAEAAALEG
Assay: two-hybrid library CCmax;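 further: natural log of median RNA to DNA barcode read ratio; higher means stronger binding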
Conditions: mean of both orientations
Could you please report measured interaction score for the items listed next?
Answers are plain numbers.

Recorded interaction score, per entry:
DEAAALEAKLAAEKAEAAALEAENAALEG [APC2724-AA]	-1.75
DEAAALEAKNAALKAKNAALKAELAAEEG [APC2556-AA]	-1.72
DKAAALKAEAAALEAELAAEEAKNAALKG [APC3265-AA]	-1.56

Give one value of interaction score per listed binder.
1. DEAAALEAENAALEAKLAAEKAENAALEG [APC2474-AA]
2. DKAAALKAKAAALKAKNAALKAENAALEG [APC3354-AA]

Solution:
[-1.4, -1.89]

Give one value of interaction score per listed binder.
1. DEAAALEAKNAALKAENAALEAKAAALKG [APC2543-AA]
2. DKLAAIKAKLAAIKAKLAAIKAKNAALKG [APC1115-AA]

Solution:
1: -1.65; 2: -1.93
